Test: Kd and cooperativity indice of NLM peptides by Hill coefficient calculation
Type: binding
Settings: Hill equation fit; read-out: dissociation constant Kd
Ends that are not written are not given here.
measured_quantity: Kd (µM)

{"substance": "NLM: corresponding wild type NLM peptide covering the same 21 amino acid range as NLM-DR (LKAQADIYKADFQAERHAREK-NH2; not fully specified (N-terminus))", "measured_quantity": "Kd", "quantitative_readout": 240}
{"substance": "LKAQADIYKARFQAERHAREK [NLM-DR]", "measured_quantity": "Kd", "quantitative_readout": 170}
